Items are presented alongside their recorded IC50.
Test system: MCF7
test-summary: Cytotoxicity against human MCF7 cells after 24 hrs by MTT assay
Type: functional, cell-based
experimental-context: MCF7, 24 h
property-measured: IC50 (µg/mL)

1) Cc1nc2c3c(ccc2s1)NC1=C(C(=O)OC1)C3c1ccc(O)c([N+](=O)[O-])c1 (racemic) = 56
2) Cc1nc2c3c(ccc2s1)NC1=C(C(=O)OC1)C3c1ccc(Br)cc1 (racemic) = 748
3) Cc1ccc(C2C3=C(COC3=O)Nc3ccc4sc(C)nc4c32)cc1 (racemic) = 25.7
4) Cc1nc2c3c(ccc2s1)NC1=C(C(=O)OC1)C3c1cccc([N+](=O)[O-])c1 (racemic) = 151
5) COc1cc(C2C3=C(COC3=O)Nc3ccc4sc(C)nc4c32)cc(OC)c1OC (racemic) = 686
6) Cc1nc2c3c(ccc2s1)NC1=C(C(=O)OC1)C3c1ccc(Cl)cc1Cl (racemic) = 539
